Assay: Plasma pharmacokinetics in hemodialysis-dependent subjects, On-dialysis vs Off-dialysis periods
Format: in vivo, human
Conditions: male, human, plasma, iv, Dialysis group, Off-dialysis (n = 7); single 2 h IV infusion 2 g cefepime + 0.5 g taniborbactam; geometric mean (geometric CV %); read-out: Cmax
Parameter: Cmax (µg/mL)
Write down the numeric answer in µg/mL and omit the unit.

input: What value of Cmax has been reported for the following molecule? CO/N=C(\C(=O)N[C@@H]1C(=O)N2C(C(=O)[O-])=C(C[N+]3(C)CCCC3)CS[C@H]12)c1csc(N)n1 [cefepime, Cefepime, reference compound]
output: 165

----------
Assay: Plasma pharmacokinetics in hemodialysis-dependent subjects, On-dialysis vs Off-dialysis periods
Assay type: in vivo, human
Conditions: male, human, plasma, iv, Dialysis group, On-dialysis (n = 6); single 2 h IV infusion 2 g cefepime + 0.5 g taniborbactam; geometric mean (geometric CV %)
Parameter: AUC(0-inf) (µg·h/mL)
Write down the numeric answer in µg·h/mL and omit the unit.

input: What value of AUC(0-inf) has been reported for the following molecule? CO/N=C(\C(=O)N[C@@H]1C(=O)N2C(C(=O)[O-])=C(C[N+]3(C)CCCC3)CS[C@H]12)c1csc(N)n1 [cefepime, Cefepime, reference compound]
output: 1600

----------
Test: Plasma pharmacokinetics in hemodialysis-dependent subjects, On-dialysis vs Off-dialysis periods
Format: in vivo, human
Details: male, human, plasma, iv, Dialysis group, On-dialysis (n = 6); single 2 h IV infusion 2 g cefepime + 0.5 g taniborbactam; geometric mean (geometric CV %); read-out: Cmax
Parameter: Cmax (µg/mL)
Write down the numeric answer in µg/mL and omit the unit.

input: What value of Cmax has been reported for the following molecule? CO/N=C(\C(=O)N[C@@H]1C(=O)N2C(C(=O)[O-])=C(C[N+]3(C)CCCC3)CS[C@H]12)c1csc(N)n1 [cefepime, Cefepime, reference compound]
output: 105

----------
Assay: Plasma pharmacokinetics in hemodialysis-dependent subjects, On-dialysis vs Off-dialysis periods
Assay type: in vivo, human
Details: male, human, plasma, iv, Dialysis group, Off-dialysis (n = 7); single 2 h IV infusion 2 g cefepime + 0.5 g taniborbactam; geometric mean (geometric CV %)
Parameter: AUC(0-inf) (µg·h/mL)
Write down the numeric answer in µg·h/mL and omit the unit.

input: What value of AUC(0-inf) has been reported for the following molecule? CO/N=C(\C(=O)N[C@@H]1C(=O)N2C(C(=O)[O-])=C(C[N+]3(C)CCCC3)CS[C@H]12)c1csc(N)n1 [cefepime, Cefepime, reference compound]
output: 4550
